Source of measurements: PubChem BioAssay (NCATS)

Measured activity, negative = cell killing by item
measurement_description: Drug repurposing screens with cells derived from glioblastoma tumor samples (AID 1345199); note: % is set by controls: 0 for no effect and ±100 for the full control effect
conditions_used: GBM patient neurospheres viability, ATP luminescence, 48 h; at 20 µM (top of the series); tumour line C
Inconclusive results are not listed.
readout_type: activity, negative = cell killing (%)

• CCCCCCCCCCCCCCCCCCOP(=O)([O-])OC1CC[N+](C)(C)CC1 = -12.3
• CCN(CC)Cc1cc(Nc2ccnc3cc(Cl)ccc23)ccc1O = -18.3
• CO[C@@H]1[C@@H](O[C@@H]2O[C@H](C)[C@@H](O[C@H]3C[C@@](C)(O)[C@@H](O)[C@H](C)O3)[C@H](N(C)C)[C@H]2O)[C@@H](CC=O)C[C@@H](C)[C@@H](O[C@@H]2CC[C@H](N(C)C)[C@@H](C)O2)/C=C/C=C/C[C@@H](C)OC(=O)C[C@H]1O = -1.82
• CO[C@H]1C[C@H](O[C@H]2[C@H](C)[C@@H](O[C@@H]3O[C@H](C)C[C@H](N(C)C)[C@H]3OC(C)=O)[C@@H](C)C[C@]3(CO3)C(=O)[C@H](C)[C@@H](OC(C)=O)[C@@H](C)[C@@H](C)OC(=O)[C@@H]2C)O[C@@H](C)[C@@H]1OC(C)=O = -16.4
• CCC(=O)O[C@@H]1CC(=O)O[C@H](C)C/C=C/C=C/[C@H](O)[C@H](C)C[C@H](CC=O)[C@H](O[C@@H]2O[C@H](C)[C@@H](O[C@H]3C[C@@](C)(O)[C@@H](OC(=O)CC)[C@H](C)O3)[C@H](N(C)C)[C@H]2O)[C@H]1OC = 18.5
• NCc1ccccc1CC(=O)N[C@@H]1C(=O)N2C(C(=O)O)=C(CSc3nnnn3CC(=O)O)CS[C@H]12 = -8.3
